Hello, the source for this data is patent US10626106B2, in case you need it.

target: Human Glucocorticoid Receptor (hGR) (Homo sapiens, UniProt P04150); construct: the resultant supernatant (=cytosol of IM9 cells) was centrifuged at 103,000 g for 60 minutes; host or cells: IM9 human lymphoblast cell line (cytosol fraction); assay: Human Glucocorticoid Receptor (hGR) Ligand-Binding Assay (competitive 3H-dexamethasone binding, IM9 cytosol); conditions: compound at 1 μM; competition with 3H-dexamethasone; cytosol of IM9 cells; read-out: % inhibition hGR at 1 μM
Sequence (P04150 whole entry): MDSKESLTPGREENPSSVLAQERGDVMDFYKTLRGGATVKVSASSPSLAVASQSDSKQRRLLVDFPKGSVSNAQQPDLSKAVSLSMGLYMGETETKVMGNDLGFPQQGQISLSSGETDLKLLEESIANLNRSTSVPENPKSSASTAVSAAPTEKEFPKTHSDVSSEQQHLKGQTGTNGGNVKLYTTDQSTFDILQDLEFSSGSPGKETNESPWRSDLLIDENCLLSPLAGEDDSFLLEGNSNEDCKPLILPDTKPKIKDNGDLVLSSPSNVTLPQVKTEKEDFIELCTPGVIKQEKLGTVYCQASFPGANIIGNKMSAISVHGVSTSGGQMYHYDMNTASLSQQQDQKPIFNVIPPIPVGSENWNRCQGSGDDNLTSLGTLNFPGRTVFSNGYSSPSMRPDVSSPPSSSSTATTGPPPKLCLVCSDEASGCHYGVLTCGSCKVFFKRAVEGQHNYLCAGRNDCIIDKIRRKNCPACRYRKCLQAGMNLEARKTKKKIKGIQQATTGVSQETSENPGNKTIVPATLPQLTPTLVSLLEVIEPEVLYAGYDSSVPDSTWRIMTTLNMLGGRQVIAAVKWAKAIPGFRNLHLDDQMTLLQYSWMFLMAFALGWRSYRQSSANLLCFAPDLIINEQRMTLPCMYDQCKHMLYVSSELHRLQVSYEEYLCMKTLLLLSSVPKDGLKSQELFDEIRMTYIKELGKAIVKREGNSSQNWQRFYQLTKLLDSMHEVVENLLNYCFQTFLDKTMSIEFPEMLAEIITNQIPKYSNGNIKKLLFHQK
property-label: inhibition at 1 µM

>>> measured("Cn1cc(-n2ncc3cc(N4C(=O)C[C@H](NC(=O)C5(C)CC5)[C@H]4c4ccccc4)ccc32)ccc1=O")
"60 to 85%"
>>> measured("Cn1ccc(C(=O)N[C@H]2CC(=O)N(c3ccc4c(cnn4-c4ccc(=O)n(C)c4)c3)[C@@H]2c2ccccc2)n1")
"60 to 85%"
>>> measured("COc1cc([C@@H]2[C@@H](NC(=O)C(C)(F)F)CC(=O)N2c2ccc3c(cnn3-c3ccc(=O)n(C)c3)c2)ccn1")
"60 to 85%"
>>> measured("Cn1ccc(Cn2ncc3cc(N4C(=O)C[C@H](NC(=O)C(C)(F)F)C4c4ccccc4)ccc32)cc1=O (stereo in doubt)")
"60 to 85%"
>>> measured("COc1ccc(Cn2ncc3cc(N4C(=O)C[C@H](NC(=O)C(C)(F)F)[C@H]4c4ccccc4)ccc32)cn1 (relative stereo)")
"> 85%"
>>> measured("Cn1cc(-n2ncc3cc(N4C(=O)C[C@H](NC(=O)C(C)(F)F)[C@H]4c4cccc(Cl)c4)ccc32)ccc1=O")
"> 85%"

---

Biological target: Human Glucocorticoid Receptor (hGR) (Homo sapiens)
Construct: the resultant supernatant (=cytosol of IM9 cells) was centrifuged at 103,000 g for 60 minutes; host or cells: IM9 human lymphoblast cell line (cytosol fraction)
Experiment: Human Glucocorticoid Receptor (hGR) Ligand-Binding Assay (competitive 3H-dexamethasone binding, IM9 cytosol)
Conditions: read-out: % inhibition hGR at 1 μM
Description: Human Glucocorticoid Receptor (hGR) Ligand-Binding Assay Potential selective glucocorticoid receptor modulators of this intervention can be tested for their binding affinity at the glucocorticoid receptor using the binding assay described below. Preferably, the glucocortitcoid receptor extracted from cytosol of IM9 cells is used for competitive radioligand binding assays to calculate the IC50 values and binding affinity (Ki value) of the compounds according to the present invention. […]
inhibition at 1 µM values by entry
property-label: inhibition at 1 µM

>>> measured("CC(F)(F)C(=O)N[C@H]1CC(=O)N(c2ccc3c(cnn3-c3cccnc3)c2)C1c1ccccc1 (stereo in doubt)")
"> 85%"
>>> measured("Cn1cc(-n2ncc3cc(N4C(=O)C[C@H](NC(=O)C(C)(F)F)[C@H]4c4ccc(F)cc4)ccc32)ccc1=O")
"> 85%"
>>> measured("CC(F)(F)C(=O)N[C@H]1CC(=O)N(c2ccc3c(cnn3-c3ccncc3)c2)C1c1ccccc1 (stereo in doubt)")
"> 85%"
>>> measured("Cc1ccc(-n2ncc3cc(N4C(=O)C[C@H](NC(=O)C(C)(F)F)C4c4ccccc4)ccc32)cn1 (stereo in doubt)")
"60 to 85%"
>>> measured("Cn1cc(-n2ncc3cc(N4C(=O)C[C@H](NC(=O)C(C)(F)F)[C@H]4c4ccccc4)ccc32)ccc1=O")
"> 85%"
>>> measured("Cn1cc(-n2ncc3cc(N4C(=O)C[C@H](NC(=O)C(C)(F)F)C4c4ccccc4)ccc32)cn1 (stereo in doubt)")
"> 85%"
>>> measured("CC(F)(F)C(=O)N[C@H]1CC(=O)N(c2ccc3c(cnn3-c3ncc(F)cn3)c2)C1c1ccccc1 (stereo in doubt)")
"60 to 85%"
>>> measured("CC(F)(F)C(=O)N[C@H]1CC(=O)N(c2ccc3c(cnn3-c3ccc(F)cn3)c2)C1c1ccccc1 (stereo in doubt)")
"> 85%"
>>> measured("COc1cc(-n2ncc3cc(N4C(=O)C[C@H](NC(=O)C(C)(F)F)C4c4ccccc4)ccc32)ccn1 (stereo in doubt)")
"60 to 85%"
>>> measured("Cc1cc(-n2ncc3cc(N4C(=O)C[C@H](NC(=O)C(C)(F)F)C4c4ccccc4)ccc32)ccn1 (stereo in doubt)")
"> 85%"
